Hello, the source for this data is patent US6875743B1, in case you need it.

# TARGET: VLA4 (Homo sapiens, UniProt P05556+P13612)
# Construct: endogenous in cells; host or cells: Ramos cells
# Sequence (P13612 34-1032): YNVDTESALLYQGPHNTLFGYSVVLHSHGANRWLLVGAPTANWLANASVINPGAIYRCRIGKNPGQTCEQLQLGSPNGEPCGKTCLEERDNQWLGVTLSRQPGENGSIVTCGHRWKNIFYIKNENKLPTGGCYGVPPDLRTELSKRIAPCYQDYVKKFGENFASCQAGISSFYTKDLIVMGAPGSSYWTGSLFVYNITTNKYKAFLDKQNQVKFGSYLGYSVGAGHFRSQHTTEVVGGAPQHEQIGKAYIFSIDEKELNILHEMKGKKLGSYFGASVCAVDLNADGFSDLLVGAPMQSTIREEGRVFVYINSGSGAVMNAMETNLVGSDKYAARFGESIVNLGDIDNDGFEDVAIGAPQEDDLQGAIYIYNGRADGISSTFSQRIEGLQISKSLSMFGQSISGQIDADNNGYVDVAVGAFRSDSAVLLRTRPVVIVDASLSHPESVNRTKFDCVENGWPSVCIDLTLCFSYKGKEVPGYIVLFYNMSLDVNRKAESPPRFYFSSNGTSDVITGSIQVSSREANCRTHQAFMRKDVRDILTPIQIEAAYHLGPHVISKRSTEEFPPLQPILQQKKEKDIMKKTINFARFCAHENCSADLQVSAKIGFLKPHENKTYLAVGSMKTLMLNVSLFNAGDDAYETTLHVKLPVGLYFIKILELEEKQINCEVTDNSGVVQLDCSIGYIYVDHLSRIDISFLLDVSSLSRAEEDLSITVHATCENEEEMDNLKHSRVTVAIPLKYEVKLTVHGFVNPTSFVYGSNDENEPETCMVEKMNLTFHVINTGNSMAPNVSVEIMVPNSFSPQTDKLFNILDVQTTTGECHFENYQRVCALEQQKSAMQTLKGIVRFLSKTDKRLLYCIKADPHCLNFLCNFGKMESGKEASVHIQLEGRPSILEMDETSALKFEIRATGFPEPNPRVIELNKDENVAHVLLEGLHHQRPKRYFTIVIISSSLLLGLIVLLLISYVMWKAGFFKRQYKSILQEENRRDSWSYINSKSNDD
# Sequence (P05556 21-798): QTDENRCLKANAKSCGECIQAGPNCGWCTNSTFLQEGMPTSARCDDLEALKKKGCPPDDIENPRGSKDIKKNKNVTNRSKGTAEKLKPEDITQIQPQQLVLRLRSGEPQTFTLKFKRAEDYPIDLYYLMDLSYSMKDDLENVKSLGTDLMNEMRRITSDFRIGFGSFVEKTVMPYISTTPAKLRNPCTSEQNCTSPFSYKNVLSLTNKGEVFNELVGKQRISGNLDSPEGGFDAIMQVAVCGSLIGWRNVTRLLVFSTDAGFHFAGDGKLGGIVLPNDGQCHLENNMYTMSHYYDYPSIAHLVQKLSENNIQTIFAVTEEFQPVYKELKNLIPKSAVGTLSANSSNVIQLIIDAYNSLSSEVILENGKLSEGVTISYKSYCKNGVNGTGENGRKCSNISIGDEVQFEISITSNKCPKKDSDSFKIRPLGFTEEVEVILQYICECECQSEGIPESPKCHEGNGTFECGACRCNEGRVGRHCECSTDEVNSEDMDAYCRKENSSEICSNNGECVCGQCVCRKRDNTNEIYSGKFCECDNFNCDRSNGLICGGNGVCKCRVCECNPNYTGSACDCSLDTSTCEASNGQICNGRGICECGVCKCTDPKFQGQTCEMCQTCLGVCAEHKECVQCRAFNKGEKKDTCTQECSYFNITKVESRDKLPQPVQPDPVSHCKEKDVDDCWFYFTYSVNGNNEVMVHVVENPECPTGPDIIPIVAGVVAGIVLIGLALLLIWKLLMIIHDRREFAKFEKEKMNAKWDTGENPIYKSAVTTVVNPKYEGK
# ASSAY_PROTOCOL: Inhibition of VLA4-dependent adhesion to BSA-CS1
# Assay type: cell-based
# EXPERIMENTAL_SETUP: binding of BCECF-labelled Ramos cells to BSA-CS1 coated wells, 2 mM MnCl2; read-out: IC50
pIC50: −log10 of the molar value. Numbered stars: 1 amine (or outer) side, 2 acyl side, 3 side chain; on linkers, the order of the positions; unused ones are H or OH. Square brackets hold non-standard residues; d marks the D form. Peptide text beside a SMILES is read from it. * marks the point of attachment. X1 = O=C(Cc1ccc(N[*:1])cc1)[*:2]; CO = O=C([*:1])[*:2]; NHPh = c1ccc(N*)cc1
READOUT_KIND: pIC50

# COMPOUND, pIC50
data = [
    ("Cc1ccccc1NC(=O)Nc1ccc(CC(=O)N[C@H](CC(C)C)C(=O)N[C@@H](CC(=O)O)C(=O)N[C@@H](CC(=O)O)C(N)=O)cc1", "> 7.30"),
]

Request: Please provide the recorded pIC50 for Cc1ccccc1NC(=O)Nc1ccc(CC(=O)N[C@@H](CO)C(=O)N[C@@H](CC(=O)O)C(=O)N[C@@H](Cc2c[nH]c3ccccc23)C(N)=O)cc1 , tested on VLA4 (Homo sapiens, UniProt P05556+P13612).
Result: > 7.30

Request: Hi! What's the reported pIC50 for CSCC[C@H](NC(=O)Cc1ccc(NC(=O)Nc2ccccc2C)cc1)C(=O)N[C@@H](CCC(=O)O)C(=O)N[C@@H](CC(=O)O)C(N)=O on VLA4 (Homo sapiens, UniProt P05556+P13612)?
Result: > 7.30

Request: # get_value(readout= pIC50, system= VLA4 (Homo sapiens, UniProt P05556+P13612)) for Cc1ccccc1NC(=O)Nc1ccc(CC(=O)N[C@@H](CO)C(=O)N[C@@H](CC(=O)O)C(=O)N[C@H](C(N)=O)[C@@H](C)O)cc1
Result: > 7.30

Request: For VLA4 (Homo sapiens, UniProt P05556+P13612), provide pIC50 of Cc1ccccc1NC(=O)Nc1ccc(CC(=O)N[C@@H](CC(C)C)C(=O)N[C@@H](CC(=O)O)C(=O)N[C@H](CCC(=O)O)C(N)=O)cc1 please.
Result: > 7.30

Request: Observed pIC50 on VLA4 (Homo sapiens, UniProt P05556+P13612) for CC(C)C[C@H](NC(=O)c1ccc2ccccc2n1)C(=O)N[C@@H](CC(=O)O)C(=O)N[C@H](C(N)=O)C(C)C , please.
Result: < 5.00

Request: GET /values?readout=pIC50&system=VLA4 (Homo sapiens, UniProt P05556+P13612)&item= CC(C)C[C@H](NC(=O)Cc1ccc(NC(=O)Nc2ccccc2)cc1)C(=O)N[C@@H](CC(=O)O)C(=O)N[C@@H](C(=O)N1CCC[C@H]1C(N)=O)C(C)C [Compound 211] ({NHPh-CO}-[X1]LD[dV]P-NH2)
Result: 5.00 to 7.30
